# Assay info: Volume of distribution in cynomolgus monkey at 1 mg/kg, iv by LC-MS/MS analysis
# Type: ADME, organism-based, Macaca fascicularis
# Condition parameters: in vivo
Here, each record is paired with measured Vd data.
Please reply with the bare figure in L/kg and do not write the unit itself.

Examples from the recorded data:
{"Smiles notation": "COc1cc(C2CN(C(=O)c3cc(OC[C@H](O)CO)ccn3)C2)ccc1OCc1ccc(C2CC2)cc1", "Result units": "L/kg", "Quantitative result": 0.76}
{"Smiles notation": "COc1cc(C2CN(C(=O)c3cc(COCC(CO)(CO)CO)ccn3)C2)ccc1OCc1ccc(C2CC2)cc1", "Result units": "L/kg", "Quantitative result": 0.56}

Now turn to the next compound.
**Q:** # lookup: Vd of "COc1cc(C2CN(C(=O)c3cc(COC[C@@H](O)CO)ccn3)C2)ccc1OCc1ccc(C2CC2)cc1"
**A:** 5

###

# Assay info: Mean residence time in cynomolgus monkey at 1 mg/kg, iv by LC-MS/MS analysis
# Type: ADME, organism-based, Macaca fascicularis
# Condition parameters: in vivo
Here, each record is paired with measured MRT data.
Please reply with the bare figure in h and do not write the unit itself.

Examples from the recorded data:
{"Smiles notation": "COc1cc(C2CN(C(=O)c3cc(OC[C@H](O)CO)ccn3)C2)ccc1OCc1ccc(C2CC2)cc1", "Result units": "h", "MRT": 0.28}
{"Smiles notation": "COc1cc(C2CN(C(=O)c3cc(COCC(CO)(CO)CO)ccn3)C2)ccc1OCc1ccc(C2CC2)cc1", "Result units": "h", "MRT": 1.2}

Now turn to the next compound.
**Q:** # lookup: MRT of "COc1cc(C2CN(C(=O)c3cc(COC[C@@H](O)CO)ccn3)C2)ccc1OCc1ccc(C2CC2)cc1"
**A:** 7.5

###

# Assay info: Cmax in Sprague-Dawley rat at 3 mg/kg, po by LC-MS/MS analysis
# Type: ADME, organism-based
# Design: dose 3 mg/kg, route oral
# Condition parameters: in vivo
Here, each record is paired with measured Cmax data.
Reply with the number, then its unit.

{"Smiles notation": "COc1cc(C2CN(C(=O)c3cc(OC[C@H](O)CO)ccn3)C2)ccc1OCc1ccc(C2CC2)cc1", "Cmax": "740 nM"}
{"Smiles notation": "COc1cc(C2CN(C(=O)c3cc(COCC(CO)(CO)CO)ccn3)C2)ccc1OCc1ccc(C2CC2)cc1", "Cmax": "270 nM"}

Now turn to the next compound.
**Q:** # lookup: Cmax of "COc1cc(C2CN(C(=O)c3cc(COC[C@@H](O)CO)ccn3)C2)ccc1OCc1ccc(C2CC2)cc1"
**A:** 490 nM

###

Here, each record is paired with measured Vd data.
# Assay info: Volume of distribution in Sprague-Dawley rat at 1 mg/kg, iv by LC-MS/MS analysis
# Format: ADME, organism-based
# Condition parameters: in vivo
Please reply with the bare figure in L/kg and do not write the unit itself.

{"Smiles notation": "COc1cc(C2CN(C(=O)c3cc(COC[C@@H](O)CO)ccn3)C2)ccc1OCc1ccc(C2CC2)cc1", "Quantitative result": 3.27}
{"Smiles notation": "COc1cc(C2CN(C(=O)c3cc(OC[C@H](O)CO)ccn3)C2)ccc1OCc1ccc(C2CC2)cc1", "Quantitative result": 1.51}

Now turn to the next compound.
**Q:** # lookup: Vd of "COc1cc(C2CN(C(=O)c3cc(COCC(CO)(CO)CO)ccn3)C2)ccc1OCc1ccc(C2CC2)cc1"
**A:** 3.46
